Can you tell me AST for the items I'm about to list?
- Species on record: Rattus norvegicus
- assayOverview: Open TG-GATES - Regimen: Daily Repeat
- Type: toxicity, organism-based, Sprague-Dawley
- Set-up: regimen Daily Repeat, gender Male, age 6 weeks
- measurementParameters: in vivo, po, 100 mg/kg, […], tissue Plasma, route gavage, dose level Low, time 28 day
Numbers only, in IU/L.

Below: 3 compounds and their reported AST.
- compound: "CC(C)(S)[C@@H](N)C(=O)O"
  valueUnits: "IU/L"
  AST: 57.2
- compound: "O=C(N[C@H](CO)[C@H](O)c1ccc([N+](=O)[O-])cc1)C(Cl)Cl"
  valueUnits: "IU/L"
  AST: 61.4
- compound: "O=C(O)c1cccnc1"
  valueUnits: "IU/L"
  AST: 64.6

Alright, here's another compound for you.
Which AST is reported for this compound? CCN1CCCC1CNC(=O)c1cc(S(N)(=O)=O)ccc1OC (centres undefined) [SULPIRIDE]
65.6

---

- Species: Rattus norvegicus
- assayOverview: Open TG-GATES - Regimen: Daily Repeat
- Format: toxicity, organism-based, Sprague-Dawley
- Design: regimen Daily Repeat, gender Male, age 6 weeks
- measurementParameters: in vivo, po, 0 mg/kg, 72 h, tissue Plasma, route gavage, dose level Control, time 3 day
recordedMetric: BUN (mg/dL)
Give bare numbers, in mg/dL.

- compound: "C[C@]12CCC(=O)C=C1CC[C@@H]1[C@@H]2CC[C@@]2(C)[C@H]1CC[C@]2(C)O"
  valueUnits: "mg/dL"
  observedValue: 15.2

Lab note: each compound below needs its BUN filled in.
1. CC(=O)Oc1cc(C(C)C)c(OCCN(C)C)cc1C
2. CCSCC[C@H](N)C(=O)O
3. CC(C)C(=O)Nc1ccc([N+](=O)[O-])c(C(F)(F)F)c1 [FLUTAMIDE]
4. CN1C(=O)OC(C)(C)C1=O
5. CC(=N)S [THIOACETAMIDE]
6. O=C(N[C@H](CO)[C@H](O)c1ccc([N+](=O)[O-])cc1)C(Cl)Cl
7. CCc1oc2ccccc2c1C(=O)c1cc(I)c(O)c(I)c1
8. Nc1nc(N)c2nc(-c3ccccc3)c(N)nc2n1

[17.2, 13.8, 13.6, 15, 17, 15, 17.4, 15]

Lab note: each compound below needs its BUN filled in.
1. CC(C)(S)[C@@H](N)C(=O)O
2. C[C@](N)(Cc1ccc(O)c(O)c1)C(=O)O
3. Oc1ncnc2[nH]ncc12
4. CCN1CCCC1CNC(=O)c1cc(S(N)(=O)=O)ccc1OC (stereo not drawn) [SULPIRIDE]

14.6
14
18.2
15.8

---

- Species: Rattus norvegicus
- assayOverview: Open TG-GATES - Regimen: Single
- Type: toxicity, organism-based, Sprague-Dawley
- Design: regimen Single, gender Male, age 6 weeks
- measurementParameters: in vivo, po, 0 mg/kg, 24 h, tissue Plasma, route gavage, dose level Control
recordedMetric: TP (g/dL)
Give bare numbers, in g/dL.

- compound: "C[C@](N)(Cc1ccc(O)c(O)c1)C(=O)O"
  recordedMetric: "TP"
  valueUnits: "g/dL"
  observedValue: 5.3
- compound: "CCN1CCCC1CNC(=O)c1cc(S(N)(=O)=O)ccc1OC (stereo unspecified) [SULPIRIDE]"
  recordedMetric: "TP"
  valueUnits: "g/dL"
  observedValue: 5.4
- compound: "O=C(N[C@H](CO)[C@H](O)c1ccc([N+](=O)[O-])cc1)C(Cl)Cl"
  recordedMetric: "TP"
  valueUnits: "g/dL"
  observedValue: 5.6
- compound: "Oc1ncnc2[nH]ncc12"
  recordedMetric: "TP"
  valueUnits: "g/dL"
  observedValue: 5.7
- compound: "CC(=O)Oc1cc(C(C)C)c(OCCN(C)C)cc1C"
  recordedMetric: "TP"
  valueUnits: "g/dL"
  observedValue: 5.7
- compound: "CCC(C)(C)C(=O)O[C@H]1C[C@@H](C)C=C2C=C[C@H](C)[C@H](CC[C@@H]3C[C@@H](O)CC(=O)O3)[C@H]21"
  recordedMetric: "TP"
  valueUnits: "g/dL"
  observedValue: 5.5
- compound: "CC(C)(S)[C@@H](N)C(=O)O"
  recordedMetric: "TP"
  valueUnits: "g/dL"
  observedValue: 5.5
- compound: "CCSCC[C@H](N)C(=O)O"
  recordedMetric: "TP"
  valueUnits: "g/dL"
  observedValue: 5.7

Lab note: each compound below needs its TP filled in.
1. CC(C)C(=O)Nc1ccc([N+](=O)[O-])c(C(F)(F)F)c1 [FLUTAMIDE]
2. Nc1nc(N)c2nc(-c3ccccc3)c(N)nc2n1
3. C[C@]12CCC(=O)C=C1CC[C@@H]1[C@@H]2CC[C@@]2(C)[C@H]1CC[C@]2(C)O
4. CCc1oc2ccccc2c1C(=O)c1cc(I)c(O)c(I)c1
5. CN1C(=O)OC(C)(C)C1=O
6. CC(=N)S [THIOACETAMIDE]
7. C#C[C@]1(O)CC[C@H]2[C@@H]3CCc4cc(O)ccc4[C@H]3CC[C@@]21C
8. O=C(O)c1cccnc1

5.4
5.5
5.7
5.6
5.6
5.8
5.4
5.5

---

Can you tell me RALB for the items I'm about to list?
- Organism: Rattus norvegicus
- assayOverview: Open TG-GATES - Regimen: Single
- Type: toxicity, organism-based, Sprague-Dawley
- Parameters: regimen Single, gender Male, age 6 weeks
- measurementParameters: in vivo, po, 0 mg/kg, 24 h, tissue Plasma, route gavage, dose level Control
Write the numeric value and follow it with the unit.

- compound: "CCc1oc2ccccc2c1C(=O)c1cc(I)c(O)c(I)c1"
  RALB: "3.8 g/dL"
- compound: "C#C[C@]1(O)CC[C@H]2[C@@H]3CCc4cc(O)ccc4[C@H]3CC[C@@]21C"
  RALB: "2.5 g/dL"
- compound: "O=C(N[C@H](CO)[C@H](O)c1ccc([N+](=O)[O-])cc1)C(Cl)Cl"
  RALB: "2.6 g/dL"
- compound: "C[C@]12CCC(=O)C=C1CC[C@@H]1[C@@H]2CC[C@@]2(C)[C@H]1CC[C@]2(C)O"
  RALB: "2.7 g/dL"
- compound: "CC(=N)S [THIOACETAMIDE]"
  RALB: "4 g/dL"

Lab note: each compound below needs its RALB filled in.
1. CCSCC[C@H](N)C(=O)O
2. C[C@](N)(Cc1ccc(O)c(O)c1)C(=O)O
3. Nc1nc(N)c2nc(-c3ccccc3)c(N)nc2n1
4. CC(C)C(=O)Nc1ccc([N+](=O)[O-])c(C(F)(F)F)c1 [FLUTAMIDE]
5. CC(C)(S)[C@@H](N)C(=O)O

1. 3.4 g/dL
2. 2.5 g/dL
3. 2.7 g/dL
4. 3.3 g/dL
5. 2.6 g/dL

---

Can you tell me GLC for the items I'm about to list?
- Organism: Rattus norvegicus
- assayOverview: Open TG-GATES - Regimen: Daily Repeat
- Assay type: toxicity, organism-based, Sprague-Dawley
- Set-up: regimen Daily Repeat, gender Male, age 6 weeks
- measurementParameters: in vivo, po, 300 mg/kg, 72 h, tissue Plasma, route gavage, dose level Middle, time 3 day
Answers are plain numbers, in mg/dL.

- compound: "O=C(O)c1cccnc1 [NIACIN]"
  observedValue: 191.6

Lab note: each compound below needs its GLC filled in.
1. CCN1CCCC1CNC(=O)c1cc(S(N)(=O)=O)ccc1OC (centres undefined) [SULPIRIDE]
2. CC(C)(S)[C@@H](N)C(=O)O [PENICILLAMINE]
3. O=C(N[C@H](CO)[C@H](O)c1ccc([N+](=O)[O-])cc1)C(Cl)Cl [CHLORAMPHENICOL]

1. 182
2. 181.6
3. 169.2

---

Can you tell me APTT for the items I'm about to list?
- Organism: Rattus norvegicus
- assayOverview: Open TG-GATES - Regimen: Daily Repeat
- Format: toxicity, organism-based, Sprague-Dawley
- Design: regimen Daily Repeat, gender Male, age 6 weeks
- measurementParameters: in vivo, po, 0 mg/kg, […], tissue Blood, route gavage, dose level Control, time 7 day
One number for each entry, in s.

Below: 6 molecules and their reported APTT.
- molecule: "CC(=N)S [THIOACETAMIDE]"
  observedValue: 17.3
- molecule: "C[C@](N)(Cc1ccc(O)c(O)c1)C(=O)O"
  observedValue: 17
- molecule: "CC(C)(S)[C@@H](N)C(=O)O"
  observedValue: 17.9
- molecule: "Oc1ncnc2[nH]ncc12"
  observedValue: 17.2
- molecule: "CC(=O)Oc1cc(C(C)C)c(OCCN(C)C)cc1C"
  observedValue: 22.9
- molecule: "CCSCC[C@H](N)C(=O)O"
  observedValue: 20.5

Lab note: each molecule below needs its APTT filled in.
1. C[C@]12CCC(=O)C=C1CC[C@@H]1[C@@H]2CC[C@@]2(C)[C@H]1CC[C@]2(C)O
2. CCc1oc2ccccc2c1C(=O)c1cc(I)c(O)c(I)c1
3. CCN1CCCC1CNC(=O)c1cc(S(N)(=O)=O)ccc1OC (stereo not given) [SULPIRIDE]
4. CC(C)C(=O)Nc1ccc([N+](=O)[O-])c(C(F)(F)F)c1 [FLUTAMIDE]

1. 16.6
2. 16.8
3. 16.6
4. 19.5

Numbers sourced from ChEMBL document CHEMBL3885861.
